Catalogue of compounds with associated EC50
Tested on: Nrf2/ARE (ARE-bla HepG2 cells)
Experiment: ARE β-lactamase reporter gene assay
Format: cell-based, human
Details: Homo sapiens, HepG2; 16 h incubation; mean±SD of three experiments; read-out: ARE (HepG2) EC50

{"Compound": "N#CC(c1ccc(Cl)cc1)c1c(Cl)cc(-n2ncc(=O)[nH]c2=O)cc1Cl (centres unmarked) [Diclazuril, reference compound]", "EC50 / µM": 10.9}
{"Compound": "Nc1ccc(N)c2c1C(=O)c1ccccc1C2=O", "EC50 / µM": 22.9}
{"Compound": "CC(C)(C)c1cc([N+](=O)[O-])cc([N+](=O)[O-])c1O", "EC50 / µM": 0.52}
{"Compound": "CCCCCC[C@H]1C(=O)O[C@H](C)[C@H](NC(=O)c2cccc(NC=O)c2O)C(=O)O[C@@H](C)[C@@H]1OC(=O)CC(C)C [Antimycin A, reference compound]", "EC50 / µM": 0.47}
{"Compound": "O=C(Nc1ccc(Cl)cc1)Nc1ccc(Cl)c(Cl)c1", "EC50 / µM": 6.68}
{"Compound": "O=C(O)c1cc(O)c2c(c1)C(=O)c1cccc(O)c1C2=O", "EC50 / µM": 15.4}
{"Compound": "NNc1nc(-c2ccc(N)cc2)cs1 [2-Hydrazino-4-(4-aminophenyl) thiazole]", "EC50 / µM": 10.5}
{"Compound": "CCC(C)c1cc([N+](=O)[O-])cc([N+](=O)[O-])c1O (centres unmarked)", "EC50 / µM": 0.76}
